These entries and their values trace back to paper PMC4649501.

- TARGET_OF_ASSAY: PDCD6 (Homo sapiens, UniProt O75340)
- Sequence (O75340 2-191): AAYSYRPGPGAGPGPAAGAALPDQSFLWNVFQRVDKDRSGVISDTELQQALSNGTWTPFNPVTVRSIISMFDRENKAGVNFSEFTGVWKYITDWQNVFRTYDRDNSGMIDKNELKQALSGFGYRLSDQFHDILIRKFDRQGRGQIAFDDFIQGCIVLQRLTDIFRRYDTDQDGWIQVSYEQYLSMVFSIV
- TEST_DESCRIPTION: SPR
MEASURE_NAME: Kd (µM)
One number for each entry, in µM.

Can you look up the measured Kd of Sorcin (protein) MAYPGHPGAGGGYYPGGYGGAPGGPAFPGQTQDPLYGYFAAVAGQDGQIDADELQRCLTQSGIAGGYKPFNLETCRLMVSMLDRDMSGTMGFNEFKELWAVLNGWRQHFISFDTDRSGTVDPQELQKALTTMGFRLSPQAVNSIAKRYSTNGKITFDDYIACCVKLRALTDSFRRRDTAQQGVVNFPYDDFIQCVMSV for me?
12
